For each record, write down the corresponding pIC50.
- Measured on: HDAC4 (Homo sapiens, UniProt P56524)
- Sequence (P56524 648-1057 limits assumed): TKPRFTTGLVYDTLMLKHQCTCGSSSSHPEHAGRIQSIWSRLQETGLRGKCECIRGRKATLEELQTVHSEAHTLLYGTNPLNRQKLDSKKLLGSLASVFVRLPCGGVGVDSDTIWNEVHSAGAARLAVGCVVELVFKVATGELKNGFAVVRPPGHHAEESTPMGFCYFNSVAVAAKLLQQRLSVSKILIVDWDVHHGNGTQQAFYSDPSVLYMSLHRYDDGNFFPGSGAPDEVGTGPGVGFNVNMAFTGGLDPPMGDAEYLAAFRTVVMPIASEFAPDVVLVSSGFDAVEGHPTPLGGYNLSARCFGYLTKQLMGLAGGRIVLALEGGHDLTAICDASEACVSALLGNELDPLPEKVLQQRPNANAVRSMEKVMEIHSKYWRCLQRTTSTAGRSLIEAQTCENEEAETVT
- Experimental details: HDAC enzyme activity assay
- Assay type: biochemical
pIC50: −log10 of the molar value.

O=C(CN1C(=O)SC(=Cc2ccccn2)C1=O)Nc1cccc(C(F)(F)F)c1 ... < 4.30
O=C(CN1C(=O)SC(=Cc2ccccn2)C1=O)Nc1ccc(Br)c(Br)c1 ... < 4.30
O=C(CN1C(=O)SC(=Cc2ccccn2)C1=O)Nc1ccc([N+](=O)[O-])cc1 ... < 4.30

Now consider a different compound.
pIC50 of O=C(CN1C(=O)SC(=Cc2ccccn2)C1=O)Nc1ccc(Cl)cc1C(F)(F)F on HDAC4 (Homo sapiens, UniProt P56524)? < 4.30

---

- Measured on: HDAC3 (Homo sapiens, UniProt O15379)
- Sequence (O15379 whole entry): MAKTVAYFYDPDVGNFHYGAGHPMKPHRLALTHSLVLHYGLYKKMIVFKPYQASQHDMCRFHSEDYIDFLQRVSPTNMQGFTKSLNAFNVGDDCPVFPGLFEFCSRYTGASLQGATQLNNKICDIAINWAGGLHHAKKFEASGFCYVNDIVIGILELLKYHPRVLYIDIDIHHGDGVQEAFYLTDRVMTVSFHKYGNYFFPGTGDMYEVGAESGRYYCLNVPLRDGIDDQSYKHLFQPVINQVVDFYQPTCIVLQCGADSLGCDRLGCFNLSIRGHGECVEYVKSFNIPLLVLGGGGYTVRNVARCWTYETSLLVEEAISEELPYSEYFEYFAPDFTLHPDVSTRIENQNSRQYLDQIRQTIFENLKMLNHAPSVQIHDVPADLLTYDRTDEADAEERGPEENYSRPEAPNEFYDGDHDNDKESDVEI
- Sequence (Q9Y618 395-489 partner limits assumed): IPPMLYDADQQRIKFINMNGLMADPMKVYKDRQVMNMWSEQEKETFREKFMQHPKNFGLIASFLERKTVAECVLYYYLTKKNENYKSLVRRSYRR
Readout kind: IC50

O=C(CN1C(=O)SC(=Cc2ccccn2)C1=O)Nc1nc2ccccc2s1 ... > 50 µM

Give the measured IC50 of Cc1c(NC(=O)CN2C(=O)SC(=Cc3ccccn3)C2=O)c(=O)n(-c2ccccc2)n1C . > 50 µM

---

pIC50: −log10 of the molar value.
The following compounds each carry a recorded pIC50 for UniProtKB Q13547.
Sequence (Q13547 whole entry): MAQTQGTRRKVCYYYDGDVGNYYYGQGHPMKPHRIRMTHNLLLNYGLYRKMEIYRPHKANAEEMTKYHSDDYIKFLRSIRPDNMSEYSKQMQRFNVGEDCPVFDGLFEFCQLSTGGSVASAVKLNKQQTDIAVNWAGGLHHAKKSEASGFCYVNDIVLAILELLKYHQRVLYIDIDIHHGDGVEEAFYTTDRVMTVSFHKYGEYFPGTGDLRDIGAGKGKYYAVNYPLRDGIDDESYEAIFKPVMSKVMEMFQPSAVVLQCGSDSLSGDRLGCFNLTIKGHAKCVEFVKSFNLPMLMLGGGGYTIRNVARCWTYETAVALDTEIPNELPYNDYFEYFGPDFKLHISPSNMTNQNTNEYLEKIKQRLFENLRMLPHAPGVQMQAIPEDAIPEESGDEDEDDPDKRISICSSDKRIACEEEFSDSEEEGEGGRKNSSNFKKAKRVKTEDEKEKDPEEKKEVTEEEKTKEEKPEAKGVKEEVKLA

O=C(CN1C(=O)SC(=Cc2ccccn2)C1=O)Nc1nc2ccccc2s1 [Compound P19] ... < 4.30

Next compound, please.
// query pIC50 value for entry Cc1c(NC(=O)CN2C(=O)SC(=Cc3ccccn3)C2=O)c(=O)n(-c2ccccc2)n1C [Compound P10] < 4.30

---

IC50, UniProt:Q92769: measured values
Sequence (Q92769 whole entry): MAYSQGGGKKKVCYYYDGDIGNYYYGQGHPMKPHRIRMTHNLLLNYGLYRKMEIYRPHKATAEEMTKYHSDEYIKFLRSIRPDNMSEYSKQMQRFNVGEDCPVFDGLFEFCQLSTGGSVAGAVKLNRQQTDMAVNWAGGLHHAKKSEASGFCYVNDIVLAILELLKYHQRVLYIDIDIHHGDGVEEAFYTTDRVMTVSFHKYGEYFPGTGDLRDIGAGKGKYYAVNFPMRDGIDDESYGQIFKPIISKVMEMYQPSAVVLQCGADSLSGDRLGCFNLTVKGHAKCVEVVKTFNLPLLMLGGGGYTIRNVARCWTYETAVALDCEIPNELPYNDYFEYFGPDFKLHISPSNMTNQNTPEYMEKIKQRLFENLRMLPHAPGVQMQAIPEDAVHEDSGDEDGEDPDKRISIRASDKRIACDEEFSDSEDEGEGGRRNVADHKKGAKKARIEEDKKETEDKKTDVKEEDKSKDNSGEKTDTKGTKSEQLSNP
Answers are plain numbers, in µM.

I'm hoping you can list IC50 for every compound here, please.
1. O=C(CN1C(=O)SC(=Cc2ccccn2)C1=O)Nc1nc2ccccc2s1 [Compound P19]
2. Cc1c(NC(=O)CN2C(=O)SC(=Cc3ccccn3)C2=O)c(=O)n(-c2ccccc2)n1C [Compound P10]

41
45

---

I'd appreciate it if you could supply remaining activity at 50 µM values for the items below.
- Measured on: HDAC4 (Homo sapiens)
- Experimental details: HDAC enzyme activity assay
- Assay type: biochemical
- Condition set: read-out: Residual HDAC4 activity at 50 μM
One number for each entry, in %.

These recorded examples may help you get a feel for the data.
Cc1c(NC(=O)CN2C(=O)SC(=Cc3ccccn3)C2=O)c(=O)n(-c2ccccc2)n1C [Compound P10] ... 76
O=C(CN1C(=O)SC(=Cc2ccccn2)C1=O)Nc1ccc(F)cc1 [Compound P11] ... 100
O=C(CN1C(=O)SC(=Cc2ccccn2)C1=O)Nc1ccc(F)cc1F [Compound P5] ... 59

Quick request: remaining activity at 50 µM for each listed item, please.
1. O=C(CN1C(=O)SC(=Cc2ccccn2)C1=O)Nc1ccccn1 [Compound P23]
2. O=C(CN1C(=O)SC(=Cc2ccccn2)C1=O)Nc1cccc(C(F)(F)F)c1 [Compound P6]

1. 85
2. 100

---

- Measured on: UniProt Q9UBN7
- Sequence (Q9UBN7 whole entry): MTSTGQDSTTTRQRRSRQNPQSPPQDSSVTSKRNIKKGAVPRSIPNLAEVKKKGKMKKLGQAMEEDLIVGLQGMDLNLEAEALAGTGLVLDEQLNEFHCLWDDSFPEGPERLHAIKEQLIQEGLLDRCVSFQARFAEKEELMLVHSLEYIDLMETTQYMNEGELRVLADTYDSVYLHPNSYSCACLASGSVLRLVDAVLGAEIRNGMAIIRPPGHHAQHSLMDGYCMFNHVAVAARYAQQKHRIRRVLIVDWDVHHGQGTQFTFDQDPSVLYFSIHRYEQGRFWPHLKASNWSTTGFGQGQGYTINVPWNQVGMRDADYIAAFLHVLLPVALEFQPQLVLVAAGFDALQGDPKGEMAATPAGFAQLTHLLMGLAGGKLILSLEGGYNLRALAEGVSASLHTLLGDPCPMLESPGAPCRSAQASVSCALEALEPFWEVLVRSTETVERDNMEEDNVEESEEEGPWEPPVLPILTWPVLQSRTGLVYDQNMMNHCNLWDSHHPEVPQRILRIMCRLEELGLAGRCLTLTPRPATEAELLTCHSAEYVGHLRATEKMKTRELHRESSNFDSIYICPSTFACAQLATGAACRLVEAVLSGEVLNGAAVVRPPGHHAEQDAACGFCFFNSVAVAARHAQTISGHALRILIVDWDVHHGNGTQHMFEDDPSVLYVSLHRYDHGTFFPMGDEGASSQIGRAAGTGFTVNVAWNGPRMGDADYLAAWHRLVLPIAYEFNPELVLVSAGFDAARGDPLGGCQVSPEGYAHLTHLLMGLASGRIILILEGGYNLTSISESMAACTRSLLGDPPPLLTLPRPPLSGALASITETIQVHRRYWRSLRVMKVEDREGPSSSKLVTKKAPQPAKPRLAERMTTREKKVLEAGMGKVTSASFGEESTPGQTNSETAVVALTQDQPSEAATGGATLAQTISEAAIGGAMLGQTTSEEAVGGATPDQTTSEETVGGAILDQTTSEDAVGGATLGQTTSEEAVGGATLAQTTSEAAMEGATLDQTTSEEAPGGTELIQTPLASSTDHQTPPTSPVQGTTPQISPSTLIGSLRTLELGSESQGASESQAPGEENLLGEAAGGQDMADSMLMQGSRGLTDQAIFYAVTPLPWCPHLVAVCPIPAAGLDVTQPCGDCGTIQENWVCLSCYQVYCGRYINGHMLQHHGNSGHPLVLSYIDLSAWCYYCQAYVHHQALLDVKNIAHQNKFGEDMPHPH
Readout kind: IC50

O=C(CN1C(=O)SC(=Cc2ccccn2)C1=O)Nc1nc2ccccc2s1 [Compound P19] ... 17 µM

Value lookup for IC50; key = Cc1c(NC(=O)CN2C(=O)SC(=Cc3ccccn3)C2=O)c(=O)n(-c2ccccc2)n1C [Compound P10] 26 µM

---

- Experimental details: DNS assay on normal human fibroblast
- Type: cell-based
- Condition set: HS27 normal fibroblasts
Readout kind: CC50 (µM)
Give bare numbers, in µM.

I'd like to know its CC50. The compound in question is O=C(CN1C(=O)SC(=Cc2ccccn2)C1=O)Nc1nc2ccccc2s1 105

---

- Measured on: HDAC8 (Homo sapiens)
- Sequence (Q9BY41 whole entry): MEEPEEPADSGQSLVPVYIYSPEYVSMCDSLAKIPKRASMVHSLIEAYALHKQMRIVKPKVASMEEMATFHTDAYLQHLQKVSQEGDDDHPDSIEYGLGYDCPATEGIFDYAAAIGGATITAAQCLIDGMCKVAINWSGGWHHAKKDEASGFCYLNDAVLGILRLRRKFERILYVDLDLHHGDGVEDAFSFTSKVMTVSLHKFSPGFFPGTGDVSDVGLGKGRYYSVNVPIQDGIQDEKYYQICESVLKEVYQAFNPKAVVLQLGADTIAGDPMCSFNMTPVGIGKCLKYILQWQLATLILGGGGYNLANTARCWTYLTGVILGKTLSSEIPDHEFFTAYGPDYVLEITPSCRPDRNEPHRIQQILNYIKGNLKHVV
- Experimental details: HDAC enzyme activity assay
- Format: biochemical
- Condition set: read-out: Residual HDAC8 activity at 50 μM
Consider the following compounds; for each one, report its remaining activity at 50 µM.
Answers are plain numbers, in %.

Guide cases for remaining activity at 50 µM, answers given:
O=C(CN1C(=O)SC(=Cc2ccccn2)C1=O)Nc1c(F)cc(Br)cc1F ... 94
O=C(CN1C(=O)SC(=Cc2ccccn2)C1=O)Nc1ccccc1 [Compound P1] ... 89
O=C(CN1C(=O)SC(=Cc2ccccn2)C1=O)Nc1ccc(Cl)c(Cl)c1 ... 82

Provide each entry's remaining activity at 50 µM from the list below.
1. O=C(CN1C(=O)SC(=Cc2ccccn2)C1=O)Nc1ccccc1F [Compound P2]
2. O=C(CN1C(=O)SC(=Cc2ccccn2)C1=O)Nc1ccc(Br)cc1F
3. COc1cccc(NC(=O)CN2C(=O)SC(=Cc3ccccn3)C2=O)c1
4. COc1ccc(NC(=O)CN2C(=O)SC(=Cc3ccccn3)C2=O)cc1

1: 92; 2: 85; 3: 68; 4: 67

Hello, the source for this data is paper PMC7302971, in case you need it.
